Tested on: generalized trembling caused by dl-5-hydroxytryptophane
Test: Test B: potentialization in mice of generalized trembling caused by dl-5-hydroxytryptophane
Assay type: in vivo
Conditions: Mus musculus; mice, oral; dl-5-hydroxytryptophane i.p.; read-out: Test B ED 50
From the text: Test B: Potentialization in mice of generalized trembling caused by an intraperitoneal injection of dl-5-hydroxytryptophane, according to the protocol described by GOURET C. and RAYNAUD G. in J. Pharmacol. (Paris), (1974), 5, 231.
Note to self: use rule met only for ED50 readings below 4 mg/kg; a reading exactly at 4 mg/kg still gets rule not met.

Consider the following illustrative entries.
molecule	discrete_label
O=C1O[C@@H](CO)C[C@@H]1c1ccc(OCc2cccc([N+](=O)[O-])c2)cc1 (relative stereo) [6 A]	rule not met
COCC1CC(c2ccc(OCc3cccnc3)cc2)C(=O)O1 (centres unmarked) [Compound 15]	rule not met
COC[C@H]1C[C@@H](c2ccc(OCc3cccc(Cl)c3)cc2)C(=O)O1 (relative stereo) [10 B]	rule not met
N#Cc1cc(COc2ccc(C3CC(CO)OC3=O)cc2)cc([N+](=O)[O-])c1 (centres unmarked) [Compound 16]	rule met
COC[C@@H]1C[C@H](c2ccc(OCc3cccc(C#N)c3)cc2)C(=O)O1 (relative stereo) [13 B]	rule met

Please find the next molecule below.
Req: Please check: ED50 for O=C1O[C@@H](CO)C[C@H]1c1ccc(OCc2cccc([N+](=O)[O-])c2)cc1 (relative stereo) [6 B] , strictly under 4 mg/kg or not?
Resp: rule met

----------
test system: generalized trembling caused by dl-5-hydroxytryptophane; experiment: Test B: potentialization in mice of generalized trembling caused by dl-5-hydroxytryptophane; format: in vivo; details: Mus musculus; mice, oral; dl-5-hydroxytryptophane i.p.; read-out: Test B ED 50
attribute_measured: ED50 (mg/kg)
Give bare numbers, in mg/kg.

See these solved cases before continuing.
compound	target_of_assay	unit_string	ED50
COC[C@H]1C[C@H](c2ccc(OCc3ccc(F)c(Cl)c3)cc2)C(=O)O1 (relative stereo)	generalized trembling caused by dl-5-hydroxytryptophane	mg/kg	16
C#CCN(C)Cc1ccccc1 [PARGYLINE, reference compound]	generalized trembling caused by dl-5-hydroxytryptophane	mg/kg	48
O=C1OC(CO)CC1c1ccc(OCc2cccc([N+](=O)[O-])c2)cc1 (centres unmarked)	generalized trembling caused by dl-5-hydroxytryptophane	mg/kg	1.5
COC[C@H]1C[C@@H](c2ccc(OCc3cccc([N+](=O)[O-])c3)cc2)C(=O)O1 (relative stereo)	generalized trembling caused by dl-5-hydroxytryptophane	mg/kg	0.29

Could you now look at the following compound, please?
Req: For COC[C@H]1C[C@@H](c2ccc(OCc3cc(C#N)cc([N+](=O)[O-])c3)cc2)C(=O)O1 (relative stereo) , write its ED50.
Resp: 0.55

# credit: patent US4346102A
